Here the recorded MIC is given for each entry.
tested on: K. pneumoniae MP-546; assay: Broth dilution MIC determination (CLSI), K. pneumoniae MP-546; format: cell-based; settings: Klebsiella pneumoniae, MP546; strain MP-546, broth dilution
endpoint-label: MIC

>  <molecule>
CO[C@]1(C)C[C@@H](C)CN(C)[C@H](C2CN(Cc3cccnc3)C2)COC(=O)C(C)(C)C(=O)[C@H](C)[C@H]1O[C@@H]1O[C@H](C)C[C@H](N(C)C)[C@H]1O

>  <endpoint-label>
MIC

>  <recorded-result>
4 to 32 µg/mL

$$$$
>  <molecule>
CO[C@]1(C)C[C@@H](C)CN(C)[C@H](C2CN(C(=O)CCN(C)CC(C)C)C2)COC(=O)C(C)(C)C(=O)[C@H](C)[C@H]1O[C@@H]1O[C@H](C)C[C@H](N(C)C)[C@H]1O

>  <endpoint-label>
MIC

>  <recorded-result>
4 to 32 µg/mL

$$$$
>  <molecule>
CO[C@]1(C)C[C@@H](C)CN(C)[C@@H]([C@H]2CCCN(C(=O)CN(C)C)C2)COC(=O)C(C)(C)C(=O)[C@H](C)[C@H]1O[C@@H]1O[C@H](C)C[C@H](N(C)C)[C@H]1O

>  <endpoint-label>
MIC

>  <recorded-result>
> 32 µg/mL

$$$$
>  <molecule>
CO[C@]1(C)C[C@@H](C)CN(C)[C@@H]([C@@H]2CCN(C)C2)COC(=O)C(C)(C)C(=O)[C@H](C)[C@H]1O[C@@H]1O[C@H](C)C[C@H](N(C)C)[C@H]1O

>  <endpoint-label>
MIC

>  <recorded-result>
< 4 µg/mL

$$$$
>  <molecule>
CO[C@]1(C)C[C@@H](C)CN(C)[C@H](C2CCN(C)CC2)COC(=O)C(C)(C)C(=O)[C@H](C)[C@H]1O[C@@H]1O[C@H](C)C[C@H](N(C)C)[C@H]1O

>  <endpoint-label>
MIC

>  <recorded-result>
< 4 µg/mL

$$$$
>  <molecule>
CO[C@]1(C)C[C@@H](C)CN(C)[C@@H](C2CCN(C(C)[C@H]3COC(C)(C)O3)CC2)COC(=O)C(C)(C)C(=O)[C@H](C)[C@H]1O[C@@H]1O[C@H](C)C[C@H](N(C)C)[C@H]1O (mixture of isomers)

>  <endpoint-label>
MIC

>  <recorded-result>
< 4 µg/mL

$$$$
>  <molecule>
CCN(C)[C@H]1CC[C@H]([C@H]2COC(=O)C(C)(C)C(=O)[C@H](C)[C@@H](O[C@@H]3O[C@H](C)C[C@H](N(C)C)[C@H]3O)[C@](C)(OC)C[C@@H](C)CN2C)CC1

>  <endpoint-label>
MIC

>  <recorded-result>
4 to 32 µg/mL

$$$$
>  <molecule>
CO[C@]1(C)C[C@@H](C)CN(C)[C@H](C2CCN(C(=O)CN(C)C)CC2)COC(=O)C(C)(C)C(=O)[C@H](C)[C@H]1O[C@@H]1O[C@H](C)C[C@H](N(C)C)[C@H]1O

>  <endpoint-label>
MIC

>  <recorded-result>
4 to 32 µg/mL

$$$$
>  <molecule>
CO[C@]1(C)C[C@@H](C)CN(C)[C@H](C2CC3CCC(C2)N3C(C)C)COC(=O)C(C)(C)C(=O)[C@H](C)[C@H]1O[C@@H]1O[C@H](C)C[C@H](N(C)C)[C@H]1O (some centres unmarked)

>  <endpoint-label>
MIC

>  <recorded-result>
4 to 32 µg/mL

$$$$
>  <molecule>
CO[C@]1(C)C[C@@H](C)CN(C)[C@H](C2CN(C(=O)[C@@H]3CCN(CC4CC4)C3)C2)COC(=O)C(C)(C)C(=O)[C@H](C)[C@H]1O[C@@H]1O[C@H](C)C[C@H](N(C)C)[C@H]1O

>  <endpoint-label>
MIC

>  <recorded-result>
4 to 32 µg/mL

$$$$
>  <molecule>
CO[C@]1(C)C[C@@H](C)CN(C)[C@H](C2CN(C(=O)[C@H]3CCNC3)C2)COC(=O)C(C)(C)C(=O)[C@H](C)[C@H]1O[C@@H]1O[C@H](C)C[C@H](N(C)C)[C@H]1O

>  <endpoint-label>
MIC

>  <recorded-result>
> 32 µg/mL

$$$$
